Provide the reported %Inh of each item.
# System: GSK3B
# Experimental Parameters: concentration: 1 μM, replicates: in singlicate; n = 1;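 also: KINOMEscan kinase panel screen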
Give bare numbers, in %.

- Compound: "Cc1ccc(C(=O)Nc2ccc(Nc3ccnc4cc(-c5ccccn5)ccc34)cc2O)cc1.Cl"
  Measurement Kind: "%Inh"
  Unit Symbol: "%"
  Result Value: 4
- Compound: "Cc1csc(-c2nc(Nc3ccncc3)c3ccccc3n2)n1"
  Measurement Kind: "%Inh"
  Unit Symbol: "%"
  Result Value: 46
- Compound: "O=C(Nc1n[nH]c2cc(-c3cccc(F)c3F)ccc12)C1CC1"
  Measurement Kind: "%Inh"
  Unit Symbol: "%"
  Result Value: 25

Consider the following items and state reported %Inh for each.
1. CS(=O)(=O)c1ccc(-c2nc3n(c2-c2ccncc2)CCC3)cc1
2. CCCc1ccc(S(=O)(=O)NC2CCN(c3ccnc(Nc4ccc(F)cc4)n3)C2)cc1 (stereo not shown)

1. 10
2. 21

Consider the following items and state reported %Inh for each.
1. CCn1c(-c2ccccn2)nc2cnccc21
2. Cc1c(O)cccc1Nc1ccnc2ccc(C(F)(F)F)cc12.Cl
3. CN(C)CCN(C)C(=O)c1cc(-c2ccncc2)c(-c2ccc(Cl)c(O)c2)o1.Cl.Cl
4. Fc1cc(Cl)ccc1Nc1ccnc2cc(I)ccc12
5. Cn1ccc2ncnc(Oc3ccc(Nc4nc5ccccc5[nH]4)cc3)c21
6. COc1cc2ncn(-c3cc(OCC4CCCO4)c(C(N)=O)s3)c2cc1OC (stereo not shown)
7. O=C(Nc1ccc2c(c1)OCO2)NC1CCN(c2ccnc(Nc3ccc(F)cc3)n2)C1 (stereo not shown)

1. 0
2. 0
3. 14
4. 3
5. 0
6. 0
7. 16

Consider the following items and state reported %Inh for each.
1. COc1cc2ncnc(Nc3ccc4nc(-c5ccccc5)[nH]c4c3)c2cc1OC.Cl
2. CC(C)(C)c1ccc(C(=O)Nc2cn3cc(Cl)ccc3n2)cc1

22
0

---

# System: MST1
# Construct: gene STK4
# Experimental Parameters: concentration: 1 μM, replicates: in singlicate; n = 1
Measurement Kind: %Inh (%)
Give bare numbers, in %.

Solved entries:
- Molecule: "C[C@@H]1CCCCN1c1cc(-c2ccc3c(N)n[nH]c3c2)nc(N)n1"
  Unit Symbol: "%"
  %Inh: 0
- Molecule: "CC1=C(C(=O)Nc2cc3cn[nH]c3cc2F)C(c2ccc(C(F)(F)F)cc2)CC(=O)N1 (stereo not shown)"
  Unit Symbol: "%"
  %Inh: 0
- Molecule: "COc1cc2nccc(Nc3ccc(NC(=O)c4ccc(C)cc4)c(O)c3)c2cc1OC.Cl"
  Unit Symbol: "%"
  %Inh: 1

Consider the following items and state reported %Inh for each.
1. COc1cccc(NC(=O)NC2CCN(c3ccnc(Nc4ccc(F)cc4)n3)C2)c1 (stereo not shown)
2. CN1C(=O)C(Nc2ccc(Cl)c(C(=O)O)c2)=C(c2ccc(Cl)cc2)C1=O
3. Cc1ccc(NC(=O)Nc2cccc(Cl)c2)cc1-c1ccc(C(=O)Nc2ccncc2)cc1
4. Cl.c1ccc(-c2n[nH]cc2-c2ccnc(-c3ccc(CN4CCOCC4)cc3)c2)nc1
5. Cc1cccc(-c2cc(Nc3ccncc3)c3ccccc3n2)n1
6. COc1cc2ncn(-c3cc(OCC4CCCO4)c(C(N)=O)s3)c2cc1OC (stereo not shown)
7. Cc1cccc(-c2nc(Nc3ccc4[nH]ncc4c3)c3ccccc3n2)n1

[0, 12, 1, 21, 0, 0, 0]

Consider the following items and state reported %Inh for each.
1. Cc1cccc(-c2nc(Nc3cccc(C(N)=O)c3)c3ccccc3n2)n1
2. O=C(Nc1ccccc1)Nc1cccc(Oc2ccc3nccn3n2)c1
3. CCCc1ccc(S(=O)(=O)NC2CCN(c3ccnc(Nc4ccc(F)cc4)n3)C2)cc1 (stereo not shown)
4. Cc1c(O)cccc1Nc1ccnc2ccc(C(F)(F)F)cc12.Cl
5. O=S(=O)(c1ccc(-c2ccnc3[nH]ccc23)cc1)N1CCCC1

31
0
0
0
0

According to the records, this molecule Cc1csc(-c2nc(Nc3ccncc3)c3ccccc3n2)n1 displays %Inh of 18

---

Provide the reported %Inh of each item.
# Test system: RSK3(Kin.Dom.1-N-terminal)
# Construct: gene RPS6KA2
# Experimental Parameters: concentration: 1 μM, replicates: in singlicate; n = 1
Answers are plain numbers, in %.

- Compound: "Cc1cccc(-c2nc(Nc3cccc(C(N)=O)c3)c3ccccc3n2)n1"
  Tgt: "RSK3(Kin.Dom.1-N-terminal)"
  Measurement Kind: "%Inh"
  Unit Symbol: "%"
  Result Value: 2

Consider the following items and state reported %Inh for each.
1. Cc1cccc(-c2cc(Nc3ccncc3)c3ccccc3n2)n1
2. Cc1cc(N2Cc3ccccc3C2)nc(Nc2ccc(S(=O)(=O)N3CCOCC3)cc2)n1.Cl
3. Cc1ccc(-c2cc(-c3c[nH]nc3-c3ccccn3)ccn2)cc1
4. COc1ccc(Nc2nccc(-c3cccc(NC(=O)c4cc5cc(F)ccc5[nH]4)c3)n2)cc1
5. Cc1ccccc1-n1cnc2c(N)ncnc21
6. Cc1cccc(-c2nc(Nc3ccncc3)c3ccccc3n2)n1
7. CC(C)(C)c1ccc(C(=O)Nc2cn3cc(Cl)ccc3n2)cc1
8. Cn1cncc1-c1ccc2ncnc(Nc3ccc(OCc4ccccc4)cc3)c2c1

5
0
0
1
0
0
0
23

Consider the following items and state reported %Inh for each.
1. Fc1cccc(COc2nnc(-c3ccc4c(c3)CCO4)o2)c1
2. O=c1cc(N2CCOCC2)nc2n(Cc3cccc(Cl)c3Cl)ccn12
3. CS(=O)(=O)c1ccc(-c2c(-c3ncn[nH]3)sc(N3CCOCC3)c2C#N)cc1
4. CC1=C(C(=O)Nc2cc3cn[nH]c3cc2F)C(c2ccc(C(F)(F)F)cc2)CC(=O)N1 (centres unmarked)
5. Cc1cc(NCC(c2ccccc2)c2ccccc2)nc(NCc2ccc(C(F)(F)F)cc2)n1

1. 0
2. 0
3. 0
4. 22
5. 0

---

# Tested on: IKK-alpha
# Construct: gene CHUK
# Experimental Parameters: concentration: 1 μM, replicates: in singlicate; n = 1
Measurement Kind: %Inh (%)
Give bare numbers, in %.

- Compound: "Cc1csc(-c2nc(Nc3ccncc3)c3ccccc3n2)n1"
  %Inh, %: 48
- Compound: "COc1cc2ncn(-c3cc(OCC4CCCO4)c(C(N)=O)s3)c2cc1OC (stereo not shown)"
  %Inh, %: 0
- Compound: "CC(=O)Nc1nc2cnc(Nc3cc(NC(=O)c4cccc(CCC#N)c4)ccc3C)nc2s1"
  %Inh, %: 10
- Compound: "Nc1ncnc2[nH]c(-c3ccccc3)nc12"
  %Inh, %: 42
- Compound: "COc1cccc(-c2cc(-c3c[nH]nc3-c3ccccn3)ccn2)c1"
  %Inh, %: 2
- Compound: "Cc1cccc(-c2nc(C)cc(Nc3ccncc3)n2)n1"
  %Inh, %: 0
- Compound: "O=c1cc(N2CCOCC2)nc2n(Cc3cccc(Cl)c3Cl)ccn12"
  %Inh, %: 0
- Compound: "C[C@@H]1CCCCN1c1cc(-c2ccc3c(N)n[nH]c3c2)nc(N)n1"
  %Inh, %: 0
- Compound: "COc1ccc(Nc2nccc(NCCNC(=O)Nc3ccccc3F)n2)cc1"
  %Inh, %: 0
- Compound: "O=C(Nc1ccccc1)Nc1cccc(Oc2ccc3nccn3n2)c1"
  %Inh, %: 7

Consider the following items and state reported %Inh for each.
1. Nc1nc(-c2nccs2)c(-c2ccnc3ccccc23)s1
2. Cl.Oc1ccc(-c2nc(-c3ccccc3)[nH]c2-c2ccncc2)cc1
3. Cc1cccc(-c2nc(-c3ccc(S(C)(=O)=O)cc3)sc2-c2ccnc(NCCc3ccccc3)c2)c1
4. Cl.NC(=O)c1cccc(Nc2nccc(Nc3ccc(Oc4cccc(Cl)c4)c(Cl)c3)n2)c1
5. COc1cc2ncnc(Nc3ccc4nc(-c5ccccc5)[nH]c4c3)c2cc1OC.Cl
6. O=C1NC(=O)C(N2CCc3ccccc32)=C1c1ccccc1Cl

1. 0
2. 0
3. 0
4. 3
5. 0
6. 98.1

Consider the following items and state reported %Inh for each.
1. Cc1nnc(-c2ccc3occ(-c4ccc(S(C)=O)cc4)c3c2)[nH]1 (stereo not shown)
2. CN1C(=O)C(Nc2ccc(Cl)c(C(=O)O)c2)=C(c2ccc(Cl)cc2)C1=O
3. Cc1ccc(NC(=O)Nc2cccc(Cl)c2)cc1-c1ccc(C(=O)Nc2ccncc2)cc1

1. 26
2. 0
3. 0

---

# Tested on: DAPK3
# Experimental Parameters: concentration: 1 μM, replicates: in singlicate; n = 1
Measurement Kind: %Inh (%)
Answers are plain numbers, in %.

- Compound: "O=C(Nc1n[nH]c2cc(-c3cccc(F)c3F)ccc12)C1CC1"
  %Inh (%): 35

Consider the following items and state reported %Inh for each.
1. Clc1cc(Cl)cc(Nc2ccnc(Nc3cc(Cl)cc(Cl)c3)n2)c1
2. COc1cc2ncnc(Nc3ccc4nc(-c5ccccc5)[nH]c4c3)c2cc1OC.Cl
3. COc1ccccc1CNC(=O)c1cc(C(=O)c2ccccc2C)c[nH]1
4. CN1C(=O)C(Nc2ccc(Cl)c(C(=O)O)c2)=C(c2ccc(Cl)cc2)C1=O

1: 23; 2: 13; 3: 17; 4: 14

Consider the following items and state reported %Inh for each.
1. Cn1ccc2ncnc(Oc3ccc(NC(=O)Nc4ccccc4)cc3)c21
2. Cc1cccc(-c2nc(C)cc(Nc3ccncc3)n2)n1
3. Cc1cccc(-c2nc(Nc3ccc4[nH]ncc4c3)c3ccccc3n2)n1
4. Cc1cc(NCC(c2ccccc2)c2ccccc2)nc(NCc2ccc(C(F)(F)F)cc2)n1
5. Nc1ncnc2[nH]c(-c3ccccc3)nc12
6. Cl.O=C(Nc1cccc(-c2nn3ncccc3c2-c2ccnc(Nc3cccnc3)n2)c1)c1c(F)cccc1F
7. Cc1ccc(-c2cc(-c3c[nH]nc3-c3ccccn3)ccn2)cc1
8. CC(=O)Nc1nc2cnc(Nc3cc(NC(=O)c4cccc(CCC#N)c4)ccc3C)nc2s1

[0, 14, 28, 0, 27, 6, 25, 8]

Attribution: paper PMC5540273
